Reported IC50 values follow for various compounds
Molecular target: Vascular endothelial growth factor receptor 2 (Homo sapiens, UniProt P35968)
Sequence (P35968 whole entry): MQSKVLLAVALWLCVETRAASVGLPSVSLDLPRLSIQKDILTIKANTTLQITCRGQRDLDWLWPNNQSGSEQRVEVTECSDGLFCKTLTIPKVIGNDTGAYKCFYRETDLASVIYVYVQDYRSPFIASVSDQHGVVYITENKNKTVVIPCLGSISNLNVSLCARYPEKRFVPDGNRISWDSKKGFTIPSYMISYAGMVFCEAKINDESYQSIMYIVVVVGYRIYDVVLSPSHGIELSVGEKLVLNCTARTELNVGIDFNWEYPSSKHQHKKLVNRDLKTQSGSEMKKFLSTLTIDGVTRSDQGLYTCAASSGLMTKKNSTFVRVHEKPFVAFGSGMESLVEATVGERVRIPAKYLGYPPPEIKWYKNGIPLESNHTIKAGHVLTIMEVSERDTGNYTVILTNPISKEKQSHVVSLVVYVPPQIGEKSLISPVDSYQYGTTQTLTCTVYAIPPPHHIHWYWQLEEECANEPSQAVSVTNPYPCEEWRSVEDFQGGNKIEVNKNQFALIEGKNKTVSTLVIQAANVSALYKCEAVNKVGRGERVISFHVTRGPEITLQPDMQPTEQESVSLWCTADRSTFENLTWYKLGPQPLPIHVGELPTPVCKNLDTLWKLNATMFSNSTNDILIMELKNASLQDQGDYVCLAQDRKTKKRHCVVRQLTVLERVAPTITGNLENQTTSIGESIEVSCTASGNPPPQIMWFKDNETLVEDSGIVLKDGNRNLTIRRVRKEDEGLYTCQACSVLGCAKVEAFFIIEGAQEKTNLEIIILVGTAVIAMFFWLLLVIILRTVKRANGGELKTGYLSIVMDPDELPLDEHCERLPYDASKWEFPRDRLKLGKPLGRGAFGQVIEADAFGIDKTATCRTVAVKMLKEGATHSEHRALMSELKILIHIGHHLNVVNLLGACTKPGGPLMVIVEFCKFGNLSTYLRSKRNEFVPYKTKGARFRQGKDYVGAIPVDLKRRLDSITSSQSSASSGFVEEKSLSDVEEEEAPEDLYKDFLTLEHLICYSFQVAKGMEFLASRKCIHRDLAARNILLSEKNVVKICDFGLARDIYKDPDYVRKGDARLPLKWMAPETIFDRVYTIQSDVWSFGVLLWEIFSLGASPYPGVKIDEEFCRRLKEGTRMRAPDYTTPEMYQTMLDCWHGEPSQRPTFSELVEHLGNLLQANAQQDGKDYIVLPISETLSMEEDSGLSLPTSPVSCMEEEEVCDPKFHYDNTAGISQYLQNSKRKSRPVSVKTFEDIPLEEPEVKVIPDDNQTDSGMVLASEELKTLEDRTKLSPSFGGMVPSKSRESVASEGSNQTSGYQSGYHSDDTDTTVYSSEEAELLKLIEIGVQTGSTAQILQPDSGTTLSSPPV
Assay: Inhibition of VEGFR2 phosphorylation in human U251 cells after 10 mins by FLISA
Readout type: IC50

{"Structure string": "CC(C)c1ccc(Nc2nc(N)nc3[nH]c(Cc4ccc(Cl)cc4Cl)cc23)cc1", "Assay result": "1.4 µM"}
{"Structure string": "C#Cc1cccc(Nc2ncnc3[nH]c(Cc4ccc(Cl)cc4Cl)cc23)c1", "Assay result": "> 300 µM"}
{"Structure string": "FC(F)(F)c1cccc(Nc2ncnc3[nH]c(Cc4ccc(Cl)cc4Cl)cc23)c1", "Assay result": "> 300 µM"}

Entry source: ChEMBL document CHEMBL1157126
